Values compiled from patent US8921307B2.

Entries and their EC50
Target: hAPJ (Homo sapiens, UniProt P35414)
Sequence (P35414 whole entry): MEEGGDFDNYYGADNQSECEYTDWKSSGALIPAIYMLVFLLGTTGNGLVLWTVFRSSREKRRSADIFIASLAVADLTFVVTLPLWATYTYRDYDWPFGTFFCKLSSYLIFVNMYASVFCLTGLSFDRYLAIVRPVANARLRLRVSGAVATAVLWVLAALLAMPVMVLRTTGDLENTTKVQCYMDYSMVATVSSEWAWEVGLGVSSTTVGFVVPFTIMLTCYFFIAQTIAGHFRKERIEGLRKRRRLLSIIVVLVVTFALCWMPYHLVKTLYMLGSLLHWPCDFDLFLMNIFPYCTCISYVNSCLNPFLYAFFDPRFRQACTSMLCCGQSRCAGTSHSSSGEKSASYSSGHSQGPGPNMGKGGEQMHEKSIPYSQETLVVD
Assay: hAPJ Calcium Flux Assay
Format: cell-based
Details: Chem-5 APJ stable cells, FLIPR calcium flux stimulation; read-out: hAPJ Ca^2+ Flux EC50
Where a SMILES comes first, the peptide text is derived from it. [ ]: non-standard residue; d: D form. dTic = O=C(O)[C@H]1Cc2ccccc2CN1; pGlu = O=C1CC[C@@H](C(=O)O)N1; dNle = CCCC[C@@H](N)C(=O)O
assay.metric: EC50 (µM)

• CCCC[C@@H](NC(=O)[C@@H]1CCCN1C(=O)CNC(=O)[C@H](CCCCN)NC(=O)[C@H](Cc1c[nH]cn1)NC(=O)[C@@H](C)NC(=O)[C@H](CC(C)C)NC(=O)[C@H](CCCNC(=N)N)NC(=O)[C@@H]1CCCN1C(=O)[C@H](CCCNC(=N)N)NC(=O)[C@@H]1CCC(=O)N1)C(=O)N[C@H](CC)C(=O)N[C@H](Cc1ccccc1)C(=O)O [Example 45, pE-R-P-R-L-a-H-K-G-P-nle-abu-f-OH] = 0.0024
• CCCC[C@@H](NC(=O)[C@@H]1CCCN1C(=O)CNC(=O)[C@H](CCCCN)NC(=O)[C@H](Cc1c[nH]cn1)NC(=O)[C@@H](C)NC(=O)[C@H](CC(C)C)NC(=O)[C@H](CCCNC(=N)N)NC(=O)[C@@H]1CCCN1C(=O)[C@H](CCCNC(=N)N)NC(=O)[C@@H]1CCC(=O)N1)C(=O)N[C@H](C)C(=O)NCCc1ccccc1 [Example 36, pE-R-P-R-L-a-H-K-G-P-nle-a-NH(Phenethyl)] = 0.0162
• CCCC[C@@H](NC(=O)[C@@H]1CCCN1C(=O)CNC(=O)[C@H](CCCCN)NC(=O)[C@H](Cc1c[nH]cn1)NC(=O)[C@@H](C)NC(=O)[C@H](CC(C)C)NC(=O)[C@H](CCCNC(=N)N)NC(=O)[C@@H]1CCCN1C(=O)[C@H](CCCNC(=N)N)NC(=O)[C@@H]1CCC(=O)N1)C(=O)N[C@H](CCCNC(=N)N)C(=O)N[C@H](Cc1ccccc1)C(=O)O [Example 20, pE-R-P-R-L-a-H-K-G-P-nle-r-f-OH] ([pGlu]RPRL[dA]HKGP[dNle][dR][dF]-OH) = 0.922
• CCCC[C@@H](NC(=O)[C@@H]1CCCN1C(=O)CNC(=O)[C@H](CCCCN)NC(=O)[C@H](Cc1c[nH]cn1)NC(=O)[C@@H](C)NC(=O)[C@H](CC(C)C)NC(=O)[C@H](CCCNC(=N)N)NC(=O)[C@@H]1C[C@@H](c2ccccc2)CN1C(=O)[C@H](CCCNC(=N)N)NC(=O)[C@@H]1CCC(=O)N1)C(=O)N[C@H](C)C(=O)N[C@H](Cc1ccccc1)C(=O)O [Example 9] = 0.0099
• CCCC[C@@H](NC(=O)[C@@H]1CCCN1C(=O)CNC(=O)[C@H](CCCCN)NC(=O)[C@H](Cc1c[nH]cn1)NC(=O)[C@@H](C)NC(=O)[C@H](CC(C)C)NC(=O)[C@H](CCCNC(=N)N)NC(=O)[C@@H]1CCCN1C(=O)[C@H](CCCNC(=N)N)NC(=O)[C@@H]1CCC(=O)N1)C(=O)N[C@H](C)C(=O)N[C@H](CC(=O)O)C(=O)O [Example 22, pE-R-P-R-L-a-H-K-G-P-nle-a-d-OH] ([pGlu]RPRL[dA]HKGP[dNle][dA][dD]-OH) = 0.0868
• CCCC[C@@H](NC(=O)[C@@H]1CCCN1C(=O)CNC(=O)[C@H](CCCCN)NC(=O)[C@H](Cc1c[nH]cn1)NC(=O)[C@@H](C)NC(=O)[C@H](CC(C)C)NC(=O)[C@H](CCCNC(=N)N)NC(=O)[C@@H](C)NC(=O)[C@H](CCCNC(=N)N)NC(=O)[C@@H]1CCC(=O)N1)C(=O)N[C@H](C)C(=O)N[C@H](Cc1ccccc1)C(=O)O [Example 49, pE-R-a-R-L-a-H-K-G-P-nle-a-f-OH] ([pGlu]R[dA]RL[dA]HKGP[dNle][dA][dF]-OH) = 0.623
• CCCC[C@@H](NC(=O)[C@@H]1CCCN1C(=O)CNC(=O)[C@H](CCCCN)NC(=O)[C@H](Cc1c[nH]cn1)NC(=O)[C@@H](C)NC(=O)[C@H](CC(C)C)NC(=O)[C@H](CCCNC(=N)N)NC(=O)[C@@H]1CCCN1C(=O)[C@H](CCCNC(=N)N)NC(=O)[C@@H]1CCC(=O)N1)C(=O)N[C@H](C)C(=O)N1Cc2ccccc2C[C@@H]1C(=O)O [Example 26, pE-R-P-R-L-a-H-K-G-P-nle-a-tic-OH] ([pGlu]RPRL[dA]HKGP[dNle][dA][dTic]-OH) = 0.0017
• CCCC[C@@H](NC(=O)[C@@H]1CCCN1C(=O)CNC(=O)[C@H](CCCCN)NC(=O)[C@H](Cc1ccccc1)NC(=O)[C@@H](C)NC(=O)[C@H](CC(C)C)NC(=O)[C@H](CCCNC(=N)N)NC(=O)[C@@H]1CCCN1C(=O)[C@H](CCCNC(=N)N)NC(=O)[C@@H]1CCC(=O)N1)C(=O)N[C@H](C)C(=O)N[C@H](Cc1ccccc1)C(=O)O [Example 17, pE-R-P-R-L-a-F-K-G-P-nle-a-f-OH] ([pGlu]RPRL[dA]FKGP[dNle][dA][dF]-OH) = 0.0031
• CCCC[C@@H](NC(=O)[C@@H]1CCCN1C(=O)CNC(=O)[C@H](CCCCN)NC(=O)[C@@H](C)NC(=O)[C@@H](C)NC(=O)[C@H](CC(C)C)NC(=O)[C@H](CCCNC(=N)N)NC(=O)[C@@H]1CCCN1C(=O)[C@H](CCCNC(=N)N)NC(=O)[C@@H]1CCC(=O)N1)C(=O)N[C@H](C)C(=O)N[C@H](Cc1ccccc1)C(=O)O [Example 48, pE-R-P-R-L-a-a-K-G-P-nle-a-f-OH] ([pGlu]RPRL[dA][dA]KGP[dNle][dA][dF]-OH) = 0.0161
